TARGET DESC: Estrogen receptor beta (Homo sapiens) (UniProt Q92731)
Sequence (Q92731 whole entry, looked up): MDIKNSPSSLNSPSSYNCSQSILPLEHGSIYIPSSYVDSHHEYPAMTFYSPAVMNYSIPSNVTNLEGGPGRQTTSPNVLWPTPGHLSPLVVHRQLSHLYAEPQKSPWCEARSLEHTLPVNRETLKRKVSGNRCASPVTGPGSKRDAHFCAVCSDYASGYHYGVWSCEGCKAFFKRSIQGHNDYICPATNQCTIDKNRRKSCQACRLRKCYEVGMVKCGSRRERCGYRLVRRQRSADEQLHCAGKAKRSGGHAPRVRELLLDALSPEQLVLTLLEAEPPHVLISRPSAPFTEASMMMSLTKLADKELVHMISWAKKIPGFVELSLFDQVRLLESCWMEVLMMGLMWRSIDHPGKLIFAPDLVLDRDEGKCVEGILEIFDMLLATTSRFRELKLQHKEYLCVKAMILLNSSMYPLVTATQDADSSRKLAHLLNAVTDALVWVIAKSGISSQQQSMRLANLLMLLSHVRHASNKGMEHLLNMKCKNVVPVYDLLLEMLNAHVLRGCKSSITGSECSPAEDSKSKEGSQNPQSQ
ASSAY INFO: qHTS assay to identify small molecule antagonists of the estrogen receptor beta (ER-beta) signaling pathway (AID 1259378)
SETUP CONDITIONS: ER-beta-UAS-bla HEK293T, beta-lactamase FRET ratio, 16 h; series mostly up to 92.4 µM
Results filed as inconclusive are left out. The source made the active and inactive calls. Calls follow the shape of the dose curve; as a rule, active = well fitted inhibition curve with a large enough effect in the signal ratio in the repeat runs (not every such curve was filed as active); inconclusive = weak or mixed curves, or effect the other way; inactive = no such curve, though single readings can be large or run the other way; the % refers to the signal ratio.
READOUT: outcome

>>> data_value("OC(Cn1cncn1)(c1ccc(F)cc1)c1ccccc1F (stereo unspecified)")
"inactive"
>>> data_value("CC(C)(C)OC(=O)c1ncn2c1[C@@H]1CCCN1C(=O)c1c(Br)cccc1-2")
"inactive"
>>> data_value("CCOP(=O)(N=C1SCCS1)OCC")
"inactive"
>>> data_value("CC1CCCCC1NC(=O)Nc1ccccc1 (stereo unspecified)")
"inactive"
>>> data_value("COc1cc(OC)nc(Oc2cccc(Oc3nc(OC)cc(OC)n3)c2C(=O)O)n1")
"inactive"

[in] Can you look up the measured outcome of `COC(=O)C1=CCCN(C)C1` for me?
[out] inactive

[in] Please answer likewise for `CCOC(=O)CP(=O)(OCC)OCC`
[out] inactive

[in] Please answer likewise for CC(C)(C)NCC(O)c1cc(Cl)c(N)c(Cl)c1 (stereo unspecified)
[out] inactive

[in] Please answer likewise for `O=C(N[C@H]1CN2CCC1CC2)c1cc2ccoc2cn1`
[out] inactive

[in] Please answer likewise for `OC(c1ccccc1)(c1ccccc1)C1CCNCC1`
[out] inactive

[in] Please answer likewise for `N#CCBr`
[out] inactive
